Reported %Inh values for a set of compounds
tested on: FGR; conditions: concentration: 1 μM, replicates: in singlicate; n = 1
Reply numerically in %, unit not repeated.

Sample records with %Inh:
{"columns": ["compound", "tgt", "outputUnit", "%Inh"],
 "data": [
  ["COc1cccc(C2=C(Nc3cc(Cl)c(O)c(Cl)c3)C(=O)NC2=O)c1", "FGR", "%", 22],
  ["O=C1NC(=O)C(c2ccc(Cl)cc2)=C1Nc1cccc(Cl)c1", "FGR", "%", 0],
  ["Cc1ccc(NC(=O)Nc2ccccc2)cc1-c1ccc(C(=O)Nc2ccncc2)cc1", "FGR", "%", 34]
]}

--- query ---
Request: Param readout = %Inh; param system = FGR; param query = Cc1ccc(-c2nc(Nc3ccncc3)c3ccccc3n2)s1 ; response: value;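 further: KINOMEscan kinase panel screen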
Response: 22

Attribution: paper PMC5540273
